# procedure-details: Volume of distribution in Beagle dog at 5 mg/kg, po and 1 mg/kg, iv
# Assay type: ADME, organism-based, Canis lupus familiaris
# measurement-parameters: in vivo
quantity-kind: Vd (L/kg)
Give just the number in L/kg; leave the unit off.

Record "COc1cc(C)c(S(=O)(=O)N(C)CCOCC(=O)N2CCN(C3CCN(C)CC3)CC2)c(C)c1" . Reported Vd: 2.7

###

I'd be grateful if you could share measured bioavailability for these entries.
# procedure-details: Oral bioavailability in Sprague-Dawley rat at 10 mg/kg
# Type: ADME, organism-based
# measurement-parameters: in vivo
Give just the number in %; leave the unit off.

Record "COc1cc(C)c(S(=O)(=O)N(C)CCOCC(=O)N2CCC(C3CCN(C)CC3)CC2)c(C)c1" . Reported bioavailability: 12.3

Record "COc1cc(C)c(S(=O)(=O)N(C)CCOCC(=O)N2CCC(N3CCN(C)CC3)CC2)c(C)c1" . Reported bioavailability: 6

Record "COc1cc(C)c(S(=O)(=O)N(C)CCOCC(=O)N2CCC(C(C)(C)CN(C)C)CC2)c(C)c1" . Reported bioavailability: 3.8

Record "COc1cc(C)c(S(=O)(=O)N(C)CCOCC(=O)N2CCC(CCN(C)C)CC2)c(C)c1" . Reported bioavailability: 19

Record "COc1cc(C)c(S(=O)(=O)N(C)CCOCC(=O)N2CCN(C3CCN(C)CC3)CC2)c(C)c1" . Reported bioavailability: 18

###

I'd be grateful if you could share measured Vd for these entries.
# procedure-details: Volume of distribution in Swiss mouse at 5 mg/kg, po and 1 mg/kg, iv
# Type: ADME, organism-based
# measurement-parameters: in vivo
Please give the number followed by its unit.

Record COc1cc(C)c(S(=O)(=O)N(C)CCOCC(=O)N(C)Cc2ccc(C3=NCCN3)cc2)c(C)c1 [SAFOTIBANT] . Reported Vd: 2.6 L/kg

Record "COc1cc(C)c(S(=O)(=O)N(C)CCOCC(=O)N2CCN([C@@H]3CN4CCC3CC4)CC2)c(C)c1" . Reported Vd: 1 L/kg

Record "COc1cc(C)c(S(=O)(=O)N(C)CCOCC(=O)N2CCC(CCN(C)C)CC2)c(C)c1" . Reported Vd: 0.5 L/kg

Record "COc1cc(C)c(S(=O)(=O)N(C)CCOCC(=O)N2CCN(C3CCN(C)CC3)CC2)c(C)c1" . Reported Vd: 1.3 L/kg

###

I'd be grateful if you could share measured Vd for these entries.
# procedure-details: Volume of distribution in Sprague-Dawley rat at 10 mg/kg, po and 1 mg/kg, iv
# Type: ADME, organism-based
# measurement-parameters: in vivo
Give just the number in L/kg; leave the unit off.

Record "COc1cc(C)c(S(=O)(=O)N(C)CCOCC(=O)N2CCN(CC3CCN(C)CC3)CC2)c(C)c1" . Reported Vd: 3.5

Record "CCN1CCC(N2CCN(C(=O)COCCN(C)S(=O)(=O)c3c(C)cc(OC)cc3C)CC2)CC1" . Reported Vd: 3.8

Record "COc1cc(C)c(S(=O)(=O)N(C)CCOCC(=O)N2CCC(C(C)(C)CN(C)C)CC2)c(C)c1" . Reported Vd: 0.5

Record "COc1cc(C)c(S(=O)(=O)N(C)CCOCC(=O)N2CCC(N3CCN(C)CC3)CC2)c(C)c1" . Reported Vd: 0.6

Record "COc1cc(C)c(S(=O)(=O)N(C)CCOCC(=O)N(C)Cc2ccc(C3=NCCN3)cc2)c(C)c1" . Reported Vd: 1.4

Record "COc1cc(C)c(S(=O)(=O)N(C)CCOCC(=O)N2CCC(CCN(C)C)CC2)c(C)c1" . Reported Vd: 0.79

Record "COc1cc(C)c(S(=O)(=O)N(C)CCOCC(=O)N2CCN(C3CCN(C)CC3)CC2)c(C)c1" . Reported Vd: 1.5

Record "COc1cc(C)c(S(=O)(=O)N(C)CCOCC(=O)N2CCC(C3CCN(C)CC3)CC2)c(C)c1" . Reported Vd: 0.6
